- Tested on: 786-0
- PROTOCOL DESCRIPTION: NCI tumour cell line growth inhibition, 48 h
Activity calls are given as the source filed them. Cut-off read from the data, not from the text of the source: active = GI50 up to about 1.1 µM and inactive = higher.
The following compounds are listed with their measured GI50 values.

Observe how each entry below is paired with its result.
COMPOUND: O=c1[nH]n(CCc2ccccc2CCl)c2ccc([N+](=O)[O-])cc12
MEASURED ENDPOINT: GI50
VAL: 93.8 µM (inactive)
--
COMPOUND: O=c1ccn(-c2ccccn2)c(=O)n1-c1ccccn1
MEASURED ENDPOINT: GI50
VAL: > 100 µM (inactive)

// next item, GI50 requested
Which GI50 value belongs to COc1ccc(C(=O)/C=C2\C(=O)Nc3ccc(Br)cc32)cc1 ? 1.97 µM (inactive)

* * *

- System: SW-620
- PROTOCOL DESCRIPTION: NCI tumour cell line growth inhibition, 48 h
Active and inactive are the calls of the source. Cut-off read from the data, not from the text of the source: active = GI50 up to about 1.1 µM and inactive = higher.
MEASURED ENDPOINT: GI50

Observe how each entry below is paired with its result.
COMPOUND: CC1=NN(c2ccccc2)C(=O)/C1=C/c1ccc(O)cc1
GI50: > 100 µM (inactive)
--
COMPOUND: O=c1[nH]ccc2c1ccn2C1CC(O)C(CO)O1 (centres undefined)
GI50: > 100 µM (inactive)
--
COMPOUND: Nc1nc(N)c(N=Nc2ccc([As](=O)(O)O)c(O)c2)c(N)n1
GI50: 4.89 µM (inactive)

// next item, GI50 requested
Which GI50 value belongs to CC(=O)OCC1=CC2OC(=O)C3=COC(OC4OC(CO)C(O)C(O)C4O)C1C32 (centres undefined) ? > 100 µM (inactive)

* * *

- System: HCT-116
- PROTOCOL DESCRIPTION: NCI tumour cell line growth inhibition, 48 h
The source made the active and inactive calls. No stated cut-off is given here; in the data, active = GI50 up to about 1.1 µM and inactive = higher.
Field 'call' accepts active, inactive

The following compounds have reported results that may help.
COMPOUND: Cc1nn(-c2ccccc2)c2c1C(c1cc3ccccc3nc1Cl)NC(=O)N2 (stereo not drawn)
GROUP: inactive

COMPOUND: CC1=NN(c2ccccc2)C(=O)/C1=C/c1ccc(O)cc1
GROUP: inactive

COMPOUND: CS(=O)(=O)NC12CCC(c3ccccc31)c1ccccc12
GROUP: inactive

COMPOUND: CN(CCCNC(=O)c1c2ccc3ccccc3c2nn1C)CCCNC(=O)c1c2ccc3ccccc3c2nn1C
GROUP: inactive

COMPOUND: C[n+]1c(-c2ccccc2)cc2/c(=C\c3ccc([N+](=O)[O-])cc3)c3ccccc3n21
GROUP: active

Given COC(=O)[C@@]12CCCC(=O)[C@@H]1[C@H]1CCCC[C@H]12 , state the outcome it received in this test. inactive

Query Cn1c(CBr)nc2c1C(=O)c1nc(CBr)[nH]c(=O)c1C2=O next inactive

Query COC(=O)/C(=C/CC(N=C(c1ccccc1)c1ccccc1)C(=O)OC)N=C(c1ccccc1)c1ccccc1 (stereo not drawn) next inactive

Query OC12CC/C(=N/OCc3ccccc3)CC1c1ccccc12 (stereo not drawn) next inactive

* * *

- System: NCI-H226
- PROTOCOL DESCRIPTION: NCI tumour cell line growth inhibition, 48 h
Active and inactive are the calls of the source. No stated cut-off is given here; in the data, active = GI50 up to about 1.1 µM and inactive = higher.
MEASURED ENDPOINT: GI50

Observe how each entry below is paired with its result.
COMPOUND: C=C=C(CC(CC(=C)Br)(C(=O)OC)C(=O)OC)S(=O)(=O)c1ccccc1
TEST SYSTEM: NCI-H226
GI50: 6.12 µM (inactive)
//
COMPOUND: S=c1c2cc(I)ccc2nc(S)n1Cc1ccccc1
TEST SYSTEM: NCI-H226
GI50: 5.46 µM (inactive)
//
COMPOUND: Cc1ccc2sc3ccc(N)cc3c(=O)c2c1
TEST SYSTEM: NCI-H226
GI50: 82.4 µM (inactive)
//
COMPOUND: O=C1OC(c2ccc([N+](=O)[O-])cc2)=N/C1=C\c1ccc(Cl)cc1
TEST SYSTEM: NCI-H226
GI50: > 100 µM (inactive)
//
COMPOUND: Cc1nn(-c2ccccc2)c2c1C(c1cc3ccccc3nc1Cl)NC(=O)N2 (stereo unspecified)
TEST SYSTEM: NCI-H226
GI50: 19.1 µM (inactive)
//
COMPOUND: CC(C)C(Sc1nc(-c2ccccc2)c(-c2ccccc2)[nH]1)c1n[nH]c(=S)n1-c1ccccc1 (stereo unspecified)
TEST SYSTEM: NCI-H226
GI50: 37.7 µM (inactive)
//
COMPOUND: C=CCN1C(=O)N/C(=C\c2ccc(Cl)cc2)C1=O
TEST SYSTEM: NCI-H226
GI50: > 100 µM (inactive)
//
COMPOUND: CCCNC(=S)N/N=C(\C)c1ccc(S(=O)(=O)N(C)c2ccccc2)cc1
TEST SYSTEM: NCI-H226
GI50: 29.1 µM (inactive)

Which GI50 value belongs to C#CCn1ncc2c(SC)ncnc21 ? > 100 µM (inactive)

Query O=C1N2CCC[C@H]2CS1(=O)=O next 25.4 µM (inactive)

Query COc1ccc(-c2cc(O)c3cc4c(cc3n2)OCO4)cc1 next 29 µM (inactive)

* * *

- Test system: SW-620
- PROTOCOL DESCRIPTION: NCI tumour cell line growth inhibition, 48 h
Calls of active or inactive are those of the source. Cut-off read from the data, not from the text of the source: active = GI50 up to about 1.1 µM and inactive = higher.
MEASURED ENDPOINT: GI50

COMPOUND: C[N+]1(CCN[N+]2(C)CCCCC2)CCc2ccccc2C1 (stereo not drawn)
GI50: > 100 µM (inactive)

COMPOUND: O=c1c2ccccc2nc2sc(/N=C/C=C/c3ccccc3)nn12
GI50: > 100 µM (inactive)

COMPOUND: Cc1cn(C2CC(n3cc(Cn4ccc(=O)[nH]c4=O)nn3)C(CO)O2)c(=O)[nH]c1=O (stereo not drawn)
GI50: > 100 µM (inactive)

Which GI50 value belongs to Cc1cn(C2CC(N=[N+]=[N-])C(CO)O2)c(=O)n(CCCCO)c1=O (stereo not drawn) ? > 100 µM (inactive)

Query C=CC/C(C(=O)OC)=C(/C(=O)OC)N(CCC)CCC next 76.7 µM (inactive)

Query COc1cc2c(cc1O)CCN(C)[C@H]2Cc1ccc(Oc2c(O)c(OC)cc3c2C[C@H]2c4c(c(OC)c(OC)c(OC)c4-3)CCN2C)cc1 next 4.71 µM (inactive)

Query CSC1NC=Nc2c1sc(=S)n2-c1ccccc1 (stereo not drawn) next > 100 µM (inactive)

Query COc1ccc(/C=C2\Cc3ccccc3C2=O)cc1OC next > 100 µM (inactive)

* * *

- Tested on: 786-0
- PROTOCOL DESCRIPTION: NCI tumour cell line growth inhibition, 48 h
Active and inactive are the calls of the source. Rule as the data show it: active = GI50 up to about 1.1 µM and inactive = higher.
MEASURED ENDPOINT: GI50

COMPOUND: C=C(Br)CN(C(C)=O)C1CCCCC1
GI50: > 100 µM (inactive)
//
COMPOUND: CC(NC1=CC(=O)c2ncccc2C1=O)C(O)c1ccccc1 (stereo unspecified)
GI50: 8.69 µM (inactive)
//
COMPOUND: Clc1cc2ncn(C3CCCCO3)c2cc1Cl (stereo unspecified)
GI50: 71.6 µM (inactive)
//
COMPOUND: CC(C)[Si]1(C(C)C)OCC2OC(n3cnc4c(N)ncnc43)C(N)C2O[Si](C(C)C)(C(C)C)O1 (stereo unspecified)
GI50: 5.11 µM (inactive)

Which GI50 value belongs to O=c1[nH]c2ccccc2c(=O)c2cc3ccccc3cc12 ? 6.58 µM (inactive)

Query CC1(C)N=C(/C(C#N)=[N+](/[O-])C(=O)c2ccccc2)C(C)(C)N1O next > 100 µM (inactive)

Query COc1cc(OC)nc(Nc2c(C#N)c3nc4ccccc4n3c3ccccc23)n1 next 16.5 µM (inactive)

Query CC1=C(C)C(=O)C(C2=CC(=O)c3ccccc3C2=O)=C(C2=CC(=O)c3ccccc3C2=O)C1=O next 7.46 µM (inactive)

Query CCCCCCCCCCCCNC1(C)CNCCCNCCNCCCNC1 next 1.75 µM (inactive)

Query COC(OC)c1cc2c(cc1C(=O)[C@@]13CCC[C@@H]1NC(=O)O3)OCO2 next > 100 µM (inactive)

Query CS(=O)(=O)NC12CCC(c3ccccc31)c1ccccc12 next > 100 µM (inactive)

* * *

The following compounds are listed with their measured GI50 values.
- System: HCT-116
- PROTOCOL DESCRIPTION: NCI tumour cell line growth inhibition, 48 h
Calls of active or inactive are those of the source. No stated cut-off is given here; in the data, active = GI50 up to about 1.1 µM and inactive = higher.

Observe how each entry below is paired with its result.
COMPOUND: CCCCCCCCCCCCCCCCCC(=O)NCC(COP(=O)(O)O)OCC (centres undefined)
GI50: 58.6 µM (inactive)
//
COMPOUND: CCCn1c2ccccc2c2ccc3c(c21)C(=O)C=CC3=O
GI50: 1.63 µM (inactive)
//
COMPOUND: CNc1nc(N)nc(Nc2ccc(I)cc2)c1N=O
GI50: > 100 µM (inactive)

Which GI50 value belongs to CC(C)C(O)(C(C)C)C(C)C ? > 100 µM (inactive)
